# Tested on: Plasmodium berghei
# Experimental Details: Luciferase/luciferin-expressing antifolate-resistant parasites were used to infect a culture of HepG2 cells that were pre-incubated with compounds. Infected hepatocytes emit light due to the luciferase reaction. Assay results are presented as the percent inhibition of light emission compared to control. […]
# Assay type: functional
# Experimental Setup: sporozoite, HEPG2TOX_HILL_SLOPE 0.0875, HEPG2TOX_R_SQUARED 0.133, PBLUC_HILL_SLOPE 0.199, PBLUC_R_SQUARED 0.0366, read-out: LUCIFERASE INFECTION ASSAY - IC50
Experimental Readout: IC50

{"columns": ["Item Smiles", "Experimental Readout", "Result"],
 "data": [
  ["Cc1ccc2nc(NC(=O)C3CCCCC3)c(C(=O)NC3CCCCC3)n2c1", "IC50", "> 8.63 µM"]
]}

// provenance: ChEMBL document CHEMBL4483862
